molecular target: outer ubiquinone binding site of complex III (IIIQO) (Rattus norvegicus, UniProt P00159+P20788); construct: freshly isolated muscle mitochondria were assayed; from tissue; host or cells: rat skeletal muscle mitochondria (Wistar, Harlan Laboratories); test: High-throughput screen: ROS production from outer ubiquinone binding site of complex III (IIIQO); format: biochemical; conditions: Table 7; percent change in ROS from DMSO controls; read-out: IIIQO
Provide the reported inhibition at 2.5 µM of each item.
Just so you know, I need the unit written after the number.

Requested read-out: inhibition at 2.5 µM. Entry: CCN(CC)CCN(CC)Cc1ccc(Cl)cc1Cl
3.3%

Requested read-out: inhibition at 2.5 µM. Entry: O=C(O)CCC(=O)Nc1ccc(-c2nc3cc(NC(=O)CCC(=O)O)ccc3[nH]2)cc1
-0.4%

Requested read-out: inhibition at 2.5 µM. Entry: O=C(O)C1CCCCC1C(=O)NC1CCCCC1 (stereo not shown)
-1.2%

Requested read-out: inhibition at 2.5 µM. Entry: Cc1ccc(NC(=O)CCC(=O)O)cc1
6.5%
